System: gluten-reactive T cells
Test: 96-well plate whole blood cytokine release, IFNγ by MAGPIX multiplex bead assay
Type: cell-based, human
Conditions: Subject 6; after oral gluten challenge; Max. 72 pg/mL
Non-standard residues stand in square brackets, D forms with d. pGlu = O=C1CC[C@@H](C(=O)O)N1
assayReadout: Percent of maximal response to individual gluten peptides, IFNg

Request: Look up and report measured Percent of maximal response to individual gluten peptides, IFNg for this entry: (pE)QPFPQPEQPFSQQ-amide ([pGlu]QPFPQPEQPFSQQ-NH2; SMILES NC(=O)CC[C@H](NC(=O)[C@H](CCC(N)=O)NC(=O)[C@H](CO)NC(=O)[C@H](Cc1ccccc1)NC(=O)[C@@H]1CCCN1C(=O)[C@H](CCC(N)=O)NC(=O)[C@H](CCC(=O)O)NC(=O)[C@@H]1CCCN1C(=O)[C@H](CCC(N)=O)NC(=O)[C@@H]1CCCN1C(=O)[C@H](Cc1ccccc1)NC(=O)[C@@H]1CCCN1C(=O)[C@H](CCC(N)=O)NC(=O)[C@@H]1CCC(=O)N1)C(N)=O) [Peptide 7]
Response: 0 % of max

Request: Tell me measured Percent of maximal response to individual gluten peptides, IFNg for (pE)LQPFPQPELPYPQPQ-amide ([pGlu]LQPFPQPELPYPQPQ-NH2; SMILES CC(C)C[C@H](NC(=O)[C@@H]1CCC(=O)N1)C(=O)N[C@@H](CCC(N)=O)C(=O)N1CCC[C@H]1C(=O)N[C@@H](Cc1ccccc1)C(=O)N1CCC[C@H]1C(=O)N[C@@H](CCC(N)=O)C(=O)N1CCC[C@H]1C(=O)N[C@@H](CCC(=O)O)C(=O)N[C@@H](CC(C)C)C(=O)N1CCC[C@H]1C(=O)N[C@@H](Cc1ccc(O)cc1)C(=O)N1CCC[C@H]1C(=O)N[C@@H](CCC(N)=O)C(=O)N1CCC[C@H]1C(=O)N[C@@H](CCC(N)=O)C(N)=O) [Peptide 1] please.
Response: 25 % of max
